QUANTITY: melting point

Before answering, review these 2 worked examples.
In [3]: df
Out[3]:
                           structure_string       observed
0  COc1ccccc1NC(=O)c1ccc(CSC(=S)N2CCN(c3ncccc3[N+](=O)[O-])CC2)cc1  166 to 167 °C
1  O=C(CSC(=S)N1CCN(c2ncccc2[N+](=O)[O-])CC1)Nc1ccccc1[N+](=O)[O-]  149 to 151 °C

Could you report melting point for every entry in the following list?
1. O=C(CSC(=S)N1CCN(c2ncccc2[N+](=O)[O-])CC1)Nc1cccc(Cl)c1
2. COc1ccc(NC(=O)CSC(=S)N2CCN(c3ncccc3[N+](=O)[O-])CC2)cc1

Result:
121 to 122 °C
151 to 153 °C

---

TEST TARGET: urease (Canavalia ensiformis, UniProt P07374)
Sequence (P07374 whole entry, looked up): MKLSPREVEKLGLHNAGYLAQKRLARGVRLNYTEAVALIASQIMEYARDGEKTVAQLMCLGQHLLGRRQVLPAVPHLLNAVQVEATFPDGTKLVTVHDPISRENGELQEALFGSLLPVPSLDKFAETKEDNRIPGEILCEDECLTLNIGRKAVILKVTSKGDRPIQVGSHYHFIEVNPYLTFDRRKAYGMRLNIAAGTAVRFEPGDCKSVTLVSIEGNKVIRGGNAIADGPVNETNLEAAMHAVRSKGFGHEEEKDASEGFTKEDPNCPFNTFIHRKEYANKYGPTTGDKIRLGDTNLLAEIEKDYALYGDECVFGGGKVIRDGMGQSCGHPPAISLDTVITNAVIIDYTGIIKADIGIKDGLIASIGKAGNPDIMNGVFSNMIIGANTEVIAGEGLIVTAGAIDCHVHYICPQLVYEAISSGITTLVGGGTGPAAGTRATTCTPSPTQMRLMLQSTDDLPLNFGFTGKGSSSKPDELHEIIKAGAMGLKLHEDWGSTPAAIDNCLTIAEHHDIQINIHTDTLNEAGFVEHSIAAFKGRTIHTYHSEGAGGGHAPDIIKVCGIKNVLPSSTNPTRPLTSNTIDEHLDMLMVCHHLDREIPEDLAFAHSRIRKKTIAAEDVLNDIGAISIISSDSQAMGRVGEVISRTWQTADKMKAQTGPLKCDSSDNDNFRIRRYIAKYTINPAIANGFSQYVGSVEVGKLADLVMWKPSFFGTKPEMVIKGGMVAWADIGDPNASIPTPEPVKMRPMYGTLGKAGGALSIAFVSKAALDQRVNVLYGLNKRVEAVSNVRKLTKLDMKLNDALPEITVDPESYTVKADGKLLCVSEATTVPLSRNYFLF
ASSAY PROCEDURE: biochemical
Format: biochemical
Would you mind telling me the reported pIC50 of each entry?
Numbers only, as −log10 of the molar value.

Solved cases below.
In [3]: df
Out[3]:
                           structure_string  observed
0  Cc1ccccc1NC(=O)CSC(=S)N1CCN(c2ncccc2[N+](=O)[O-])CC1      5.29
1  O=C(Nc1ccc(Cl)cc1)c1ccc(CSC(=S)N2CCN(c3ncccc3[N+](=O)[O-])CC2)cc1      4.37
2  O=C(CSC(=S)N1CCN(c2ncccc2[N+](=O)[O-])CC1)Nc1cccc(Br)c1      4.49

Problem: Could you share what pIC50 was measured for `O=C(Nc1ccccc1Cl)c1ccc(CSC(=S)N2CCN(c3ncccc3[N+](=O)[O-])CC2)cc1` , tested on urease (Canavalia ensiformis, UniProt P07374)?
Result: 4.49

---

TEST TARGET: urease (Canavalia ensiformis, UniProt P07374)
ASSAY PROCEDURE: biochemical
Assay type: biochemical
Method: The inhibitory potential of the compounds was assessed using a slightly modified indophenol method ([Hina et al., 2023]). […] Then, 30 min later, the absorbance at 630 nm for all samples was measured using a BioTek ELx800 instrument from BioTek Instruments, Inc., United States. […]
Please respond with reported pIC50 for every item in the list.
Give bare numbers, as −log10 of the molar value.

# annotated cases, reported pIC50 shown
>>> df
                           structure_string  quantity  observed
0  O=C(CSC(=S)N1CCN(c2ncccc2[N+](=O)[O-])CC1)Nc1ccccc1Cl     pIC50      4.39
1  Cc1ccccc1NC(=O)c1ccc(CSC(=S)N2CCN(c3ncccc3[N+](=O)[O-])CC2)cc1     pIC50      4.91

I would be grateful if you could provide pIC50 for each of the following entries.
1. COc1ccccc1NC(=O)CSC(=S)N1CCN(c2ncccc2[N+](=O)[O-])CC1
2. O=C(Nc1cccc([N+](=O)[O-])c1)c1ccc(CSC(=S)N2CCN(c3ncccc3[N+](=O)[O-])CC2)cc1
3. Cc1ccc(NC(=O)c2ccc(CSC(=S)N3CCN(c4ncccc4[N+](=O)[O-])CC3)cc2)cc1
4. O=C(Nc1ccccc1[N+](=O)[O-])c1ccc(CSC(=S)N2CCN(c3ncccc3[N+](=O)[O-])CC2)cc1
5. COc1ccc(NC(=O)c2ccc(CSC(=S)N3CCN(c4ncccc4[N+](=O)[O-])CC3)cc2)cc1
6. O=C(Nc1ccc(Br)cc1)c1ccc(CSC(=S)N2CCN(c3ncccc3[N+](=O)[O-])CC2)cc1

Result:
1: 5.09; 2: 4.32; 3: 4.43; 4: 4.24; 5: 4.62; 6: 4.77

---

For each of the compounds below, state its melting point.

// worked examples, melting point included
>>> df
                           structure_string       observed
0  COc1ccc(NC(=O)c2ccc(CSC(=S)N3CCN(c4ncccc4[N+](=O)[O-])CC3)cc2)cc1  187 to 189 °C
1  Cc1ccc(NC(=O)c2ccc(CSC(=S)N3CCN(c4ncccc4[N+](=O)[O-])CC3)cc2)cc1  158 to 160 °C
2  O=C(CSC(=S)N1CCN(c2ncccc2[N+](=O)[O-])CC1)Nc1ccc([N+](=O)[O-])cc1  168 to 169 °C

Let us examine a further case.
Problem: Entry under review: `O=C(Nc1ccccc1)c1ccc(CSC(=S)N2CCN(c3ncccc3[N+](=O)[O-])CC2)cc1` . Reported melting point?
Result: 142 to 143 °C

---

TEST TARGET: urease (Canavalia ensiformis, UniProt P07374)
ASSAY PROCEDURE: biochemical
Type: biochemical
Protocol: The inhibitory potential of the compounds was assessed using a slightly modified indophenol method ([Hina et al., 2023]). […] Then, 30 min later, the absorbance at 630 nm for all samples was measured using a BioTek ELx800 instrument from BioTek Instruments, Inc., United States. […]
Cut-off 30 µM on IC50: below means 1.0, at or above means 0.0.

                                   molecule                               test_target  class_assignment
0  O=C(CSC(=S)N1CCN(c2ncccc2[N+](=O)[O-])CC1)Nc1cccc(Cl)c1 [Compound 5c]  urease (Canavalia ensiformis, UniProt P07374)               0.0
1  O=C(CSC(=S)N1CCN(c2ncccc2[N+](=O)[O-])CC1)Nc1ccc(Br)cc1 [Compound 5f]  urease (Canavalia ensiformis, UniProt P07374)               1.0
2  O=C(CSC(=S)N1CCN(c2ncccc2[N+](=O)[O-])CC1)Nc1cccc([N+](=O)[O-])c1 [Compound 5h]  urease (Canavalia ensiformis, UniProt P07374)               1.0

Problem: Is IC50 of Cc1cccc(NC(=O)c2ccc(CSC(=S)N3CCN(c4ncccc4[N+](=O)[O-])CC3)cc2)c1 [Compound 7k] strictly below 30 µM?
Result: 1.0

Problem: Quick one: O=C(CSC(=S)N1CCN(c2ncccc2[N+](=O)[O-])CC1)Nc1ccccc1[N+](=O)[O-] [Compound 5g]
Result: 1.0

Problem: And COc1ccccc1NC(=O)c1ccc(CSC(=S)N2CCN(c3ncccc3[N+](=O)[O-])CC2)cc1 [Compound 7m] ?
Result: 1.0

Problem: Now consider O=C(CSC(=S)N1CCN(c2ncccc2[N+](=O)[O-])CC1)Nc1ccc(Cl)cc1 [Compound 5d] and answer again.
Result: 0.0

Problem: Now give it for COc1ccc(NC(=O)CSC(=S)N2CCN(c3ncccc3[N+](=O)[O-])CC2)cc1 [Compound 5n] too.
Result: 1.0
